Reference for the values: patent US20240352133A1

Parameter: koff. Scope: all listed entries.
# targetDesc: Recombinant human his-tagged IGF 1R extracellular domain protein (human) (UniProt P08069)
# assayRemarks: SPR, captured antibody, pH 7.4
// note: answer is a bare numeric in s⁻¹

VRDN-03103 (antibody, V domains shown) VH: QVQLVESGGGVVQPGRSLRLSCAASGFTFSDYTMHWVRQAPGKGLEWVAIIWFDGSSKYYPGSVKGRFTISRDNSKNTLYLQMNSLRAEDTAVYYCARELGRRYFDIWGRGTLVTVSS VL: EIVLTQSPATLSLSPGERATLSCRASQGVSSYLAWYQQKPGQAPRLLIYGASTRATGIPARFSGSGSGTDFTLTISSLEPEDFAVYYCQQRSRWPPWTFGQGTKLEIK	0.00637

koff lookup needed for VRDN-03112 (antibody, V domains shown) VH: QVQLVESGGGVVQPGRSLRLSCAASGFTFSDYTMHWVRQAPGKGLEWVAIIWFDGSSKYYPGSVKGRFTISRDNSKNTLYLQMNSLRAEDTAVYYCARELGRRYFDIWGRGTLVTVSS VL: EIVMTQSPATLSVSPGERATLSCRASQGVSSYLAWYQQKPGQAPRLLIYGASTRATGIPARFSGSGSGTEFTLTISSLQSEDFAVYYCQQRSRWPPWTFGQGTKLEIK , thanks.
0.000322
